# Tested on: SK-MEL-2 melanoma
# measurement protocol: NCI tumour cell line growth inhibition, 48 h
Overview of reported TGI across a group of compounds:

Please review the entries below; each comes with its answer.
O=C(Cc1ccc([N+](=O)[O-])c([N+](=O)[O-])c1CC(=O)C(=O)Nc1cc(Cl)ccc1Cl)C(=O)Nc1cc(Cl)ccc1Cl = > 100 µM
C[N+]1(CCC(=O)c2ccccc2)CCC2CCC(C2)C1 (stereo not drawn) = > 100 µM
O=C(CO[N+](=O)[O-])OC/C=C/c1ccccc1 = > 100 µM
C/C(=N/O)c1ccc2c(c1)/C(=N/O)c1ccccc1-2 = 48 µM
Cc1cc(S(=O)(=O)Nc2n[nH]c(Nc3ccc4ccccc4c3)n2)c(S)cc1Cl = 73.7 µM

IN: Item COc1cc2c(cc1O)CN1CCC23C=C[C@@H](O)CC13 (stereo partly drawn) : provide TGI
OUT: > 100 µM

IN: Item COc1ccccc1-n1c(NN)nc2ccc(Br)cc2c1=O : provide TGI
OUT: > 100 µM

IN: Item C[C@H](CS)C(=O)N1c2ccccc2C[C@H]1C(=O)O : provide TGI
OUT: > 100 µM

IN: Item COc1cc(-c2ccc(NC(=O)SCCC(=O)O)cc2OC)ccc1NC(=O)SCCC(=O)O : provide TGI
OUT: > 100 µM

IN: Item CCO/C(O)=C(/C(=N)N1CCCC1)C(=O)Nc1cccc(Cl)c1 : provide TGI
OUT: > 100 µM

* * *

Overview of reported TGI across a group of compounds:
# System: HOP-62 NSCLC
# measurement protocol: NCI tumour cell line growth inhibition, 48 h

Please review the entries below; each comes with its answer.
Cc1ccc(-c2nc3cc(Cl)c(Cl)cc3nc2C#N)cc1 = > 100 µM
COc1cc(C(C[N+](=O)[O-])SC(C)=O)ccc1OCc1ccccc1 (configuration not stated) = 14.3 µM
C[C@@]1(Cc2ccccc2)C(=O)N2[C@@H](CO)C(c3ccccc3)O[C@]2(C)c2ccccc21 (some centres not stated) = > 100 µM
COC(=O)C1CC23C4=C(CCC41)CCC1CN4CC(C)C(CC(OC(C)=O)C12COC(C)=O)C43O (configuration not stated) = > 100 µM
CC1(C)OCN(c2ccc(S(N)(=O)=O)cc2)Cn2c1nc1ccccc12 = > 100 µM

IN: Item Cc1cc(S(=O)(=O)NC2=NCCN2Cc2ccccc2)c(S)cc1Cl : provide TGI
OUT: > 100 µM

IN: Item N=c1ccc2nc(N)nn(O)c-2c1 : provide TGI
OUT: > 100 µM

IN: Item Cc1nc(-c2cnc(NC(C)C)n(C)c2=O)ccc1Oc1ccnc(-c2cnn(C)c2)c1 : provide TGI
OUT: > 100 µM

* * *

# System: HCC-2998 colon
# measurement protocol: NCI tumour cell line growth inhibition, 48 h
Overview of reported TGI across a group of compounds:

OCc1ccc(N2CCc3cc(F)ccc3C2)cc1Cl = 12.8 µM
Nc1nnc(CCC(=O)Nc2cc(Cl)ccc2Cl)n1N = > 100 µM
O=C(CCl)Nc1cc(Cl)c(Cl)cc1Cl = > 10 µM
O=C(Cn1c(=O)oc2ccc(C(=O)c3ccc(F)cc3)cc21)c1ccccc1 = > 100 µM
Oc1cnc2c(O)cccc2c1 = > 100 µM

IN: Item O=C(O)C(O)C(O)C(O)C(O)C(=O)O (stereo not drawn) : provide TGI
OUT: > 100 µM

IN: Item C/C(=N/NC(=O)C[n+]1ccccc1)C(CN(CC(C)C)CC(C)C)C(=O)Nc1ccc(C)cc1C (stereo not drawn) : provide TGI
OUT: > 100 µM

IN: Item COc1ccccc1/C=C/C1=C(C)CCC(c2ccccc2OC)C1C (stereo not drawn) : provide TGI
OUT: 1.56 µM
